Recorded values, source paper PMC9413440.

What follows is a collection of MIC values obtained with E. coli MG1655.
Number in µg/mL, nothing else.

Worked cases, MIC given:
Cc1c(CN(C)C(=O)/C=C/c2cnc3c(c2)CC[C@H](N)C(=O)N3)oc2ccccc12 [fabimycin]    2
Cc1c(CN(C)C(=O)/C=C/c2cnc3c(c2)CC2(CNC2)C(=O)N3)oc2ccccc12 [compound 2]    4
Cc1c(CN(C)C(=O)/C=C/c2cnc3c(c2)CC[C@@H](N)C(=O)N3)oc2ccccc12 [(R)-7]    64
Cc1c(CN(C)C(=O)/C=C/c2cnc3c(c2)CC2(CC(N)C2)C(=O)N3)oc2ccccc12 (racemic) [(±)-3]    4
Cc1c(CN(C)C(=O)/C=C/c2cnc3c(c2)CC[C@H](NC(=O)OC(C)(C)C)C(=O)N3)oc2ccccc12 [(S)-11]    8

Please look at the following compound next.
Request body: readout MIC, system E. coli MG1655, query Cc1c(CN(C)C(=O)/C=C/c2cnc3c(c2)CC2(CCC(CN)CC2)C(=O)N3)oc2ccccc12 (racemic) [(±)-6] . Return the value.
16
